target system: T1, PUF4 RNA-binding domain (Saccharomyces cerevisiae, UniProt P25339 537-888)
T1 sequence: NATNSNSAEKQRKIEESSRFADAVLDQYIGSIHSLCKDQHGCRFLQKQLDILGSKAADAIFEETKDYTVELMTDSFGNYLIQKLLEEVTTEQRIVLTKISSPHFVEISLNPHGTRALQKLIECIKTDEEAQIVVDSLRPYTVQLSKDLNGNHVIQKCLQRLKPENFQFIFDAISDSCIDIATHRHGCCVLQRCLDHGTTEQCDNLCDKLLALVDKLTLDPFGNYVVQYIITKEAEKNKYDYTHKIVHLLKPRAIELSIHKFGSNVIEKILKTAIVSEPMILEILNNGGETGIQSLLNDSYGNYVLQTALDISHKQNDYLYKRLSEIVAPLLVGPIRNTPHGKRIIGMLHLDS
procedure summary: Mg; RNA-MaP; 20 mM Na-HEPES pH 7.4, 30 mM KOAc, 0.75 mM MgCl2, 0.1% Tween-20, 5% glycerol, 0.1 mg/mL BSA, 2 mM DTT; 25 C; 0.0125-409.6 nM protein
condition notes: tags: N-His6-TEV cleaved; C-SNAP kept, Cy3B-labelled; label: tethered on chip by stalled RNA polymerase
# binning rule on Kd: LOW = under 10 nM, MID = from 10 nM up to 100 nM, HIGH = 100 nM and over

binder | discrete label
Ie_S2_P5E.1_K5.1_C5.1_H5.1_A5.1_F5.1_[+10TT]_T5.1 (ssRNA) RNA: UUUGAUUAAUAUGAUAUCGUUCUUUCUUGUAUUAUUAUUUUCUUUCUCGAUAUCAUAUUAAUCUUU | LOW
UCUCUUUGUAUUGUUUUCUCUU (ssRNA) [Ic_S1_P5E.1_K5.1_C5.1_H5.1_A5.1_[A7G]_F5.1_[A10T]_T5.1] | MID
Ic_S2_P5E.1_K5.1_C5.1_H5.1_A5.1_[A7C]_F5.1_[T8C]_[T9C]_[A10T]_T5.1 (ssRNA) RNA: UUUGAUUAAUAUGAUAUCGUUCUUUCUUGUAUUCCCUUUCUUUCUCGAUAUCAUAUUAAUCUUU | HIGH
UCUCUUUGUAUUCCUAUUAUCUCUU (ssRNA) [Ie_S1_P5E.1_K5.1_C5.1_H5.1_A5.1_[+5TCC]_F5.1_T5.1] | MID
UCUCUUUGUAUUAGUCUCUCUU (ssRNA) [Ib_S1_P5E.1_K5.1_C5.1_H5.1_A5.1_F5.1_[T8G]_[A10C]_T5.1] | HIGH
ACAAACGUACACUUAUUAUUACAAAC (ssRNA) [Id_ii_S3_P5E.4_K5.3_C5.2_[C-2G]_H5.3_A5.1_F5.1_T5.2_[A12T]] | HIGH
UCUCUUUGUAACGCGUCUCUU (ssRNA) [Ic_S1_P4E.1_K4.1_C4.1_H4.1_A4.1_[T5A]_[A6C]_[T7G]_F4.1_[T8C]_[A9G]_T4.1] | HIGH
UCUCUUUGUAUACUGUCUCUU (ssRNA) [Ib_S1_P4E.1_K4.1_C4.1_H4.1_A4.1_[T7C]_F4.1_[A9G]_T4.1] | LOW
UCUCUUUAUGUAUAUACUUCUCUU (ssRNA) [Id_ii_S1_P3E.2_K3.1_C3.2_[C-2T]_[T-1A]_H3.1_A3.1_F3.1_T3.2_[T9C]_[A10T]] | MID
UCUCUUUGUUUCCAUUAUUAUCUCUU (ssRNA) [Ie_S1_P5E.1_K5.1_C5.1_H5.1_[+3TTCC]_A5.1_F5.1_T5.1] | HIGH
UCUCUUUGUAUUUCGUCUCUU (ssRNA) [Ic_S1_P4E.1_K4.1_C4.1_H4.1_A4.1_[A6T]_F4.1_[T8C]_[A9G]_T4.1] | HIGH
Id_ii_S2_P4E.2_K4.1_C4.2_H4.1_A4.1_F4.1_T4.2_[G10C]_[T11C] (ssRNA) RNA: UUUGAUUAAUAUGAUAUCGUUCUUUCUCUUGUAUAUUACCUUCUUUCUCGAUAUCAUAUUAAUCUUU | LOW
Ib_S2_P3E.1_K3.1_C3.1_H3.1_[G2T]_[A4T]_A3.1_F3.1_T3.1 (ssRNA) RNA: UUUGAUUAAUAUGAUAUCGUUCUUUCUUUUUUAUAUUCUUUCUCGAUAUCAUAUUAAUCUUU | HIGH
UCUCUUUGUACCUUAGUCUCUU (ssRNA) [Ic_S1_P5E.1_K5.1_C5.1_H5.1_A5.1_[T5C]_[T6C]_[A7T]_F5.1_[T9A]_[A10G]_T5.1] | LOW
Ib_S4_P3E.1_K3.1_C3.1_H3.1_A3.1_[T5A]_F3.1_[T7A]_T3.1 (ssRNA) RNA: UUUGACAACUGAUCGUUCUUUCUUGUAAAAAUUCUUUCUCGAUCAGUUGUCUUU | HIGH
UCUCUUUCUUGUAUUUAACUUCUCUU (ssRNA) [Id_iii_S1_P4E.9_K4.5_C4.3_H4.1_A4.2_F4.2_T4.2_[G10C]] | MID
Ic_S4_P5E.1_K5.1_C5.1_H5.1_A5.1_[T5G]_[T6C]_F5.1_[T8C]_[A10T]_T5.1 (ssRNA) RNA: UUUGACAACUGAUCGUUCUUUCUUGUAGCACUUUUCUUUCUCGAUCAGUUGUCUUU | HIGH
Ic_S2_P4E.1_K4.1_C4.1_H4.1_A4.1_[A6T]_[T7C]_F4.1_[A9C]_T4.1 (ssRNA) RNA: UUUGAUUAAUAUGAUAUCGUUCUUUCUUGUAUUCUCUUCUUUCUCGAUAUCAUAUUAAUCUUU | MID
Ic_S4_P4E.1_K4.1_C4.1_H4.1_A4.1_[A6G]_F4.1_[T8A]_[A9C]_T4.1 (ssRNA) RNA: UUUGACAACUGAUCGUUCUUUCUUGUAUGUACUUCUUUCUCGAUCAGUUGUCUUU | MID
Id_ii_S2_P4E.2_K4.1_C4.2_[C-2G]_[T-1C]_H4.1_A4.1_F4.1_T4.2_[G10T]_[T11G] (ssRNA) RNA: UUUGAUUAAUAUGAUAUCGUUCUUUCUGCUGUAUAUUAUGUUCUUUCUCGAUAUCAUAUUAAUCUUU | LOW
Ic_S2_P5E.1_K5.1_C5.1_H5.1_A5.1_[T5A]_[A7G]_F5.1_T5.1 (ssRNA) RNA: UUUGAUUAAUAUGAUAUCGUUCUUUCUUGUAAUGUUAUUCUUUCUCGAUAUCAUAUUAAUCUUU | MID
Ic_S4_P4E.1_K4.1_C4.1_H4.1_A4.1_[T5C]_[A6T]_[T7A]_F4.1_[T8A]_T4.1 (ssRNA) RNA: UUUGACAACUGAUCGUUCUUUCUUGUACUAAAUUCUUUCUCGAUCAGUUGUCUUU | MID
UCUCUUAAUAUAUAUAUUUCUCUU (ssRNA) [Id_ii_S1_P3E.3_K3.2_C3.2_[C-2A]_[T-1A]_H3.2_A3.1_F3.1_T3.2_[A10T]] | HIGH
Id_ii_S4_P3E.2_K3.1_C3.2_[C-2G]_[T-1C]_H3.1_A3.1_F3.1_T3.2_[T9C] (ssRNA) RNA: UUUGACAACUGAUCGUUCUUUCUGCUGUAUAUACAUUCUUUCUCGAUCAGUUGUCUUU | MID
